- study_system: T1, SigI1C, C-terminal domain of σI factor SigI1 (C. thermocellum ATCC 27405, UniProt A3DBH0 141-249)
- T1 sequence: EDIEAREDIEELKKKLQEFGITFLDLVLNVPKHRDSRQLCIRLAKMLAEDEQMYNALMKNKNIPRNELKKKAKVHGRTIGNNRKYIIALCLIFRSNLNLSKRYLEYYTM
- test_method_notes: SPR
pKd: −log10 of the molar value.
readout_type: pKd

{"columns": ["binder", "value_observed"],
 "data": [
  ["RsgI1N E9K-E23K (domain or fragment, C. thermocellum ATCC 27405) MNRLGIIYKIQGMKAVVLTSEGKFLIIRRRKDMKVGQQVSFENEDIYNVRGK", 8.19],
  ["RsgI1N V35K (domain or fragment, C. thermocellum ATCC 27405) MNRLGIIYEIQGMKAVVLTSEGEFLIIRRRKDMKKGQQVSFENEDIYNVRGK", 11.19],
  ["RsgI1N, N-terminal cytoplasmic inhibitory domain of anti-σI factor RsgI1, wild type (domain or fragment, C. thermocellum ATCC 27405) MNRLGIIYEIQGMKAVVLTSEGEFLIIRRRKDMKVGQQVSFENEDIYNVRGK", 10.96],
  ["RsgI1N F24I (domain or fragment, C. thermocellum ATCC 27405) MNRLGIIYEIQGMKAVVLTSEGEILIIRRRKDMKVGQQVSFENEDIYNVRGK", 9.72],
  ["RsgI1N V35I (domain or fragment, C. thermocellum ATCC 27405) MNRLGIIYEIQGMKAVVLTSEGEFLIIRRRKDMKIGQQVSFENEDIYNVRGK", 10.64],
  ["RsgI1N Y8L-E9K-V35R (domain or fragment, C. thermocellum ATCC 27405) MNRLGIILKIQGMKAVVLTSEGEFLIIRRRKDMKRGQQVSFENEDIYNVRGK", 8.03],
  ["RsgI1N Y8L (domain or fragment, C. thermocellum ATCC 27405) MNRLGIILEIQGMKAVVLTSEGEFLIIRRRKDMKVGQQVSFENEDIYNVRGK", 10.08],
  ["RsgI1N Y8L-V35R (domain or fragment, C. thermocellum ATCC 27405) MNRLGIILEIQGMKAVVLTSEGEFLIIRRRKDMKRGQQVSFENEDIYNVRGK", 10.40]
]}
